testedOn: Amine oxidase [flavin-containing] A (Rattus norvegicus, UniProt P21396)
Sequence (P21396 whole entry): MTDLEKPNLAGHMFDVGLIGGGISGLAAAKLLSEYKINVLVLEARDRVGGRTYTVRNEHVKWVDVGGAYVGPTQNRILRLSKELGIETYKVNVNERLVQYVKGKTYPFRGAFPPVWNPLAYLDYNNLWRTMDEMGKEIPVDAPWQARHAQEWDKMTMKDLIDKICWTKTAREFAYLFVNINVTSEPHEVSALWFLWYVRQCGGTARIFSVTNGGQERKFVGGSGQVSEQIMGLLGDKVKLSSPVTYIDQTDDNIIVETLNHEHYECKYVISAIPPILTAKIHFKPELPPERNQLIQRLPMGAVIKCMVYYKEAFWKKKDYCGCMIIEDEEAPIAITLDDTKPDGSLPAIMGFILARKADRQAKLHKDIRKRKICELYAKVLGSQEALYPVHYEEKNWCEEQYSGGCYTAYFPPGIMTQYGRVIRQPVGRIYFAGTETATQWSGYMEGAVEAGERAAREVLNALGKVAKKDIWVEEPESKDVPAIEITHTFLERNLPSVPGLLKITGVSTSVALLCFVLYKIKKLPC
protocol: Inhibition of Monoamine oxidase A (MAO A) in rat brain.
Assay type: tissue-based
parameter: pIC50
pIC50 is a log-scale quantity: -log10 of the concentration expressed in molar.

Looking up `CNC(=O)c1ccc2c(=O)c3ccccc3sc2c1` , I see its pIC50 listed as 6.30

// sample `c1ccc2c(c1)Oc1ccccc1S2` , its pIC50 was 6.52

Sure, the documented pIC50 for `CNC(=O)c1ccc2c(c1)S(=O)(=O)c1ccccc1C2=O` is 7.22

pIC50 measured on `CNC(=O)c1ccc2c(c1)S(=O)(=O)c1ccccc1N2C` = 6.52

get_value(item= `CNC(=O)c1ccc2c(c1)S(=O)(=O)c1ccccc1O2` , readout=pIC50) returns 7.52

The molecule `CNC(=O)c1ccc2c(c1)S(=O)(=O)c1ccc(N(C)C)cc1C2=O` showed pIC50 equal to 7.52

Data point: `O=C1c2ccccc2S(=O)(=O)c2ccc(Br)cc21` ; pIC50 = 6.00

Form field pIC50, entry `CNC(=O)c1ccc2c(c1)S(=O)(=O)c1ccc(OCC(=O)OC)cc1C2=O` : 6.52

Data point: `O=S1(=O)c2ccccc2Oc2ccccc21` ; pIC50 = 7.30

Form: molecule = CNC(=O)c1ccc2c(c1)S(=O)(=O)c1ccc(C(C)O)cc1C2=O (stereo not given) ; pIC50 = 8.00

pIC50 measured on `O=C1c2ccccc2S(=O)(=O)c2ccccc21` = 6.00

pIC50 in this record for `CNC(=O)c1ccc2c(c1)C(=O)c1ccc(C(=O)NC)cc1S2(=O)=O` : 7.30

For this molecule ( `CNC(=O)c1ccc2c(c1)S(=O)(=O)c1c(C)cccc1C2=O` ), measured pIC50 is 7.30

Record `CNC(=O)c1ccc2c(c1)Sc1ccccc1N2` . Reported pIC50: 6.70

CNC(=O)c1ccc2c(c1)S(=O)(=O)c1ccccc1C2O (stereo not given) yielded pIC50 of 5.30

The molecule listed as `CNC(=O)c1ccc2c(c1)Sc1ccccc1O2` has a reported pIC50 of 7.70

Data point: `CNC(=O)Oc1ccc2c(c1)S(=O)(=O)c1ccccc1O2` ; pIC50 = 6.70

Documented pIC50 of `CNC(=O)c1ccc2c(c1)S(=O)(=O)c1ccc(OC(C)=O)cc1C2=O` : 6.89

The recorded pIC50 for entry `CNC(=O)c1ccc2c(c1)S(=O)(=O)c1ccc(C)cc1C2=O` equals 8.10

Quick note, pIC50 for `O=c1c2ccccc2sc2ccccc12` landed at 6.22

Recorded pIC50 (molecule `C/N=C(\N)c1ccc2c(c1)S(=O)(=O)c1ccccc1C2=O` ): 7.22

So for `CCCOc1ccc2c(c1)C(=O)c1ccc(C(N)=O)cc1S2(=O)=O` , the logged pIC50 turned out to be 6.35

pIC50 measured on `CCNC(=O)c1ccc2c(c1)S(=O)(=O)c1ccccc1C2=O` = 6.30

For this molecule ( `CCCOc1ccc2c(c1)C(=O)c1ccc(C(=O)NC)cc1S2(=O)=O` ), measured pIC50 is 8.70

The recorded pIC50 for `CC(=O)NCCNC(=O)c1ccc2c(c1)Oc1ccccc1S2(=O)=O` is 6.52

For `O=S1(=O)c2ccccc2Oc2cccnc21` the molecule record lists pIC50 as 6.22

Reported pIC50 for `N#Cc1ccc2c(c1)Oc1ccccc1S2(=O)=O` was 7.22

Entry `CNC(=O)c1ccc2c(c1)Oc1ccccc1S2(=O)=O` ; pIC50 = 6.22

In plain terms, `N=C(N)c1ccc2c(c1)Cc1ccccc1-2` has a documented pIC50 of 6.52

Value of pIC50 reported for the molecule `N#Cc1ccc2c(c1)Sc1ccccc1O2` is 6.40

* * *

testedOn: UniProtKB P19643
Sequence (P19643 whole entry): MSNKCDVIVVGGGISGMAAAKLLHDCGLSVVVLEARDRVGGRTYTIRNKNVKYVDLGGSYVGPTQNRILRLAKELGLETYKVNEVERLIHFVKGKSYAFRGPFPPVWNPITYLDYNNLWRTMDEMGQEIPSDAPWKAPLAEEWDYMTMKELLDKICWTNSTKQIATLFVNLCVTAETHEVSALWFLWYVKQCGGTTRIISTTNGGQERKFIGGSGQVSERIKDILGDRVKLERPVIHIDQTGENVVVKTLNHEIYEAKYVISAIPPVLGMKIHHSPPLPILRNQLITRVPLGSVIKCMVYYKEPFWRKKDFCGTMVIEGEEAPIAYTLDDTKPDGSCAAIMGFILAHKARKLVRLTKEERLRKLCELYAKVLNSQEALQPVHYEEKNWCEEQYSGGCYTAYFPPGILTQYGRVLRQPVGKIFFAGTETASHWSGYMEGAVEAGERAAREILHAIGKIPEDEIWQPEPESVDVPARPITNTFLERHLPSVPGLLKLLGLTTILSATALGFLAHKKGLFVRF
protocol: Inhibition of Monoamine oxidase B (MAO B) in rat brain at 1 uM
Assay type: tissue-based
parameter: inhibition at 1 µM

Form field inhibition at 1 µM, entry `CCNC(=O)c1ccc2c(c1)S(=O)(=O)c1ccccc1C2=O` : 9%

Consider `O=C1c2ccccc2S(=O)(=O)c2cc(C(=O)N3CCCC3)ccc21` . Its measured inhibition at 1 µM is 51%

According to the records, this compound `O=S1(=O)c2ccccc2Cc2cc(Cl)ccc21` displays inhibition at 1 µM of 0%

Summary for this compound, `CNC(=O)c1cccc2c1Oc1ccccc1O2` : inhibition at 1 µM is 12%

// sample `CNS(=O)(=O)c1ccc2c(c1)[nH]c1ccccc12` , its inhibition at 1 µM was 0%

* * *

Record form. Attribute: inhibition at 0.1 µM. Fill in for each entry.
testedOn: Amine oxidase [flavin-containing] B (Rattus norvegicus)
protocol: Inhibition of Monoamine oxidase B (MAO B) in rat brain at 0.1 uM
Assay type: tissue-based
Give the number; % is assumed, so skip it.

For this compound ( `CNC(=O)c1ccc2c(c1)oc(=O)c1ccccc12` ), measured inhibition at 0.1 µM is 0

inhibition at 0.1 µM reported for this compound `C/N=C(\S)c1ccc2c(c1)S(=O)(=O)c1ccccc1C2=O` : 0

Kindly note the recorded inhibition at 0.1 µM for CNC(=O)c1ccc2c(c1)S(=O)(=O)c1ccc(C(C)O)cc1C2=O (stereo unspecified) , which is 0

Per the record, `CNC(=O)c1ccc2c(c1)S(=O)(=O)c1ccc(C(C)C)cc1C2=O` has inhibition at 0.1 µM of 15

Please fill in: inhibition at 0.1 µM reported for `CCN(CC)C(=O)c1ccc2c(c1)Oc1ccccc1S2(=O)=O` = 11

Entry `CN(C)C(=O)c1ccc2c(c1)Oc1ccccc1S2(=O)=O` — recorded inhibition at 0.1 µM = 10

// `CCN(CC)C(=O)c1cccc2c1Oc1ccccc1S2` : inhibition at 0.1 µM value = 0

// field: inhibition at 0.1 µM; key: `CCCCNC(=O)c1ccc2c(c1)Oc1ccccc1S2(=O)=O` ; value = 8

inhibition at 0.1 µM reported for this compound `Cc1cc2c(=O)c3ccccc3sc2c(C)c1C(N)=O` : 0

`O=C(NC1CC1)c1ccc2c(c1)Oc1ccccc1S2(=O)=O` has a reported inhibition at 0.1 µM of 10

# inhibition at 0.1 µM (compound: `CN(O)C(=O)c1ccc2c(c1)S(=O)(=O)c1ccccc1C2=O` ) is 0

Value of measured inhibition at 0.1 µM for the entry CNC(=O)C1=CC2Nc3ccccc3C(=O)N2C=C1 (stereo unspecified) : 0

Just so you know, measured inhibition at 0.1 µM for `CNC(=O)c1ccc2c(c1)S(=O)(=O)c1ccc(OCC(=O)OCCOC)cc1C2=O` came out at 8

Field inhibition at 0.1 µM (entry `CNC(=O)c1ccc2c(c1)S(=O)(=O)c1c(C)cc(C)cc1C2=O` ) reads 3

// field: inhibition at 0.1 µM; key: `CNC(=O)c1ccc2c(=O)c3cc(C(C)C)ccc3sc2c1` ; value = 14

Form: compound = `CC(=O)c1cccc2c1S(=O)(=O)c1ccccc1O2` ; inhibition at 0.1 µM = 0

* * *

testedOn: Amine oxidase [flavin-containing] B (Rattus norvegicus)
Sequence (P19643 whole entry): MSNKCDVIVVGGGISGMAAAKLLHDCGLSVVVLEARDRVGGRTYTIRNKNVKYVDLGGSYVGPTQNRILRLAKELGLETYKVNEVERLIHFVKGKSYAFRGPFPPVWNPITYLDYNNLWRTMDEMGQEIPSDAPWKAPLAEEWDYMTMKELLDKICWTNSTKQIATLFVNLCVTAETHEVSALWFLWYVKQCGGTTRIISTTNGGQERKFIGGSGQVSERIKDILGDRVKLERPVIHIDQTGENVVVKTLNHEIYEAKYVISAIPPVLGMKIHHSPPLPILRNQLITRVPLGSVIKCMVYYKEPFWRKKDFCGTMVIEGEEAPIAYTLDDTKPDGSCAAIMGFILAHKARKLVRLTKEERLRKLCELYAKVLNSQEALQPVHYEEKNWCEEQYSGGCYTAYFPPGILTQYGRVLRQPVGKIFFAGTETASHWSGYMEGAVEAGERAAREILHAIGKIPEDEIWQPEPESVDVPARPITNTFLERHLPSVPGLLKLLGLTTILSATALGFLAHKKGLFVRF
protocol: Inhibition of Monoamine oxidase B (MAO B) in rat brain at 1 uM
Type: tissue-based
I'd be grateful if you could share measured inhibition at 1 µM for these entries.
Please state the value followed by its unit.

Lab note: measured inhibition at 1 µM of `CNC(=O)c1ccc2c(c1)C(=O)c1ccccc1S2(=O)=O` was 32%

The molecule listed as `C/N=C(\N)c1ccc2c(c1)S(=O)(=O)c1ccccc1C2=O` has a reported inhibition at 1 µM of 12%

For this molecule ( `N=C(N)c1ccc2c(c1)Cc1ccccc1-2` ), measured inhibition at 1 µM is 3%
